Tested on: 266295-075-R-J1-PDC spheroid viability
Test: Anticancer human tumor 266295-075-R-J1-PDC patient-derived head and neck squamous carcinoma cell line growth inhibition [POLQ]
Settings: second compound 0.1 µM; first compound 10 µM; active compounds read low; spheroids with HUVEC and MSC

{"compound": "Nc1ccn(C2OC(CO)C(O)C2(F)F)c(=O)n1 (stereo unspecified) + Nc1ccc(C#CCN(C(=O)Cc2ncc(C(F)(F)F)cc2C(F)(F)F)c2ccc(F)cc2)nn1", "viability, T/C": "80.4%"}
{"compound": "O=C(Nc1ccc(O)c(NS(=O)(=O)c2ccc(F)cc2)c1)c1ccc(-c2ccccc2)cc1 + Cc1cccc(N(C)C(=O)C2C(O)CCN2c2nc(C)cc(C(F)(F)F)c2C#N)c1", "viability, T/C": "97.7%"}
{"compound": "CNCc1ccc(-c2[nH]c3cc(F)cc4c3c2CCNC4=O)cc1 + COC1C(OC(N)=O)C(O)C(Oc2ccc3c(O)c(NC(=O)c4ccc(O)c(CC=C(C)C)c4)c(=O)oc3c2C)OC1(C)C", "viability, T/C": "99%"}
{"compound": "CCc1cc2c(N3CCc4c(cc(Cn5ccnc5)cc4-c4cn(C)nc4C(F)(F)F)C3=O)cc(C)nc2c(OC)n1 + Nc1ccc(C#CCN(C(=O)Cc2ncc(C(F)(F)F)cc2C(F)(F)F)c2ccc(F)cc2)nn1", "viability, T/C": "137%"}
{"compound": "O=C(c1cc(Cc2n[nH]c(=O)c3ccccc23)ccc1F)N1CCN(C(=O)C2CC2)CC1 + Nc1ccc(C#CCN(C(=O)Cc2ncc(C(F)(F)F)cc2C(F)(F)F)c2ccc(F)cc2)nn1", "viability, T/C": "89.5%"}
{"compound": "COc1cc2cc(C(=O)CCC(=O)O)sc2cc1OC + Nc1ccc(C#CCN(C(=O)Cc2ncc(C(F)(F)F)cc2C(F)(F)F)c2ccc(F)cc2)nn1", "viability, T/C": "80.6%"}
{"compound": "CNCc1ccc(-c2[nH]c3cc(F)cc4c3c2CCNC4=O)cc1 + Nc1ccc(C#CCN(C(=O)Cc2ncc(C(F)(F)F)cc2C(F)(F)F)c2ccc(F)cc2)nn1", "viability, T/C": "111%"}
{"compound": "O=C(Nc1ccc(O)c(NS(=O)(=O)c2ccc(F)cc2)c1)c1ccc(-c2ccccc2)cc1 + COC1C(OC(N)=O)C(O)C(Oc2ccc3c(O)c(NC(=O)c4ccc(O)c(CC=C(C)C)c4)c(=O)oc3c2C)OC1(C)C", "viability, T/C": "107%"}
{"compound": "Nc1ccn(C2OC(CO)C(O)C2(F)F)c(=O)n1 (stereo unspecified) + Cc1cccc(N(C)C(=O)C2C(O)CCN2c2nc(C)cc(C(F)(F)F)c2C#N)c1", "viability, T/C": "73.7%"}
{"compound": "O=C(Nc1ccc(O)c(NS(=O)(=O)c2ccc(F)cc2)c1)c1ccc(-c2ccccc2)cc1 + Nc1ccc(C#CCN(C(=O)Cc2ncc(C(F)(F)F)cc2C(F)(F)F)c2ccc(F)cc2)nn1", "viability, T/C": "94.7%"}
{"compound": "O=c1[nH]cc(F)c(=O)[nH]1 + Cc1cccc(N(C)C(=O)C2C(O)CCN2c2nc(C)cc(C(F)(F)F)c2C#N)c1", "viability, T/C": "83.1%"}

----------
Test system: 266295-075-R-J1-PDC spheroid viability
Assay: Anticancer human tumor 266295-075-R-J1-PDC cell line growth inhibition [POLQ];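 also: spheroids exposed to compounds for seven days before readout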
Conditions: second compound 0.1 µM; first compound 0.1 µM; active compounds read low; spheroids with HUVEC and MSC
readout-kind: viability, T/C (%)

{"compound": "Cn1ncnc1[C@H]1c2n[nH]c(=O)c3cc(F)cc(c23)N[C@@H]1c1ccc(F)cc1 + Nc1ccc(C#CCN(C(=O)Cc2ncc(C(F)(F)F)cc2C(F)(F)F)c2ccc(F)cc2)nn1", "unit-of-measurement": "%", "observed-value": 101}
{"compound": "COc1cccc2c1C(=O)c1c(O)c3c(c(O)c1C2=O)CC(O)(C(=O)CO)CC3OC1CC(N)C(O)C(C)O1 (stereo not given) + Nc1ccc(C#CCN(C(=O)Cc2ncc(C(F)(F)F)cc2C(F)(F)F)c2ccc(F)cc2)nn1", "unit-of-measurement": "%", "observed-value": 103}
{"compound": "CC[C@@]1(O)C(=O)OCc2c1cc1n(c2=O)Cc2cc3c(CN(C)C)c(O)ccc3nc2-1 + COC1C(OC(N)=O)C(O)C(Oc2ccc3c(O)c(NC(=O)c4ccc(O)c(CC=C(C)C)c4)c(=O)oc3c2C)OC1(C)C", "unit-of-measurement": "%", "observed-value": 88}
{"compound": "CNCc1ccc(-c2[nH]c3cc(F)cc4c3c2CCNC4=O)cc1 + COC1C(OC(N)=O)C(O)C(Oc2ccc3c(O)c(NC(=O)c4ccc(O)c(CC=C(C)C)c4)c(=O)oc3c2C)OC1(C)C", "unit-of-measurement": "%", "observed-value": 85.1}
{"compound": "O=C(Nc1ccc(O)c(NS(=O)(=O)c2ccc(F)cc2)c1)c1ccc(-c2ccccc2)cc1 + COC1C(OC(N)=O)C(O)C(Oc2ccc3c(O)c(NC(=O)c4ccc(O)c(CC=C(C)C)c4)c(=O)oc3c2C)OC1(C)C", "unit-of-measurement": "%", "observed-value": 87.2}
{"compound": "O=C(Nc1ccc(O)c(NS(=O)(=O)c2ccc(F)cc2)c1)c1ccc(-c2ccccc2)cc1 + Cc1cccc(N(C)C(=O)C2C(O)CCN2c2nc(C)cc(C(F)(F)F)c2C#N)c1", "unit-of-measurement": "%", "observed-value": 104}
{"compound": "O=c1[nH]cc(F)c(=O)[nH]1 + COC1C(OC(N)=O)C(O)C(Oc2ccc3c(O)c(NC(=O)c4ccc(O)c(CC=C(C)C)c4)c(=O)oc3c2C)OC1(C)C", "unit-of-measurement": "%", "observed-value": 110}
{"compound": "C#Cc1c(F)ccc2cc(O)cc(-c3ncc4c(N5CC6CCC(C5)N6)nc(OCC56CCCN5CC(F)C6)nc4c3F)c12 (stereo not given) + Nc1ccc(C#CCN(C(=O)Cc2ncc(C(F)(F)F)cc2C(F)(F)F)c2ccc(F)cc2)nn1", "unit-of-measurement": "%", "observed-value": 103}
{"compound": "CC1COCCN1c1cc(C2(O)CC3CCC(C2)O3)c2cnn(-c3ccn[nH]3)c2n1 (stereo not given) + COC1C(OC(N)=O)C(O)C(Oc2ccc3c(O)c(NC(=O)c4ccc(O)c(CC=C(C)C)c4)c(=O)oc3c2C)OC1(C)C", "unit-of-measurement": "%", "observed-value": 80.8}
{"compound": "C#Cc1c(F)ccc2cc(O)cc(-c3ncc4c(N5CC6CCC(C5)N6)nc(OCC56CCCN5CC(F)C6)nc4c3F)c12 (stereo not given) + Cc1cccc(N(C)C(=O)C2C(O)CCN2c2nc(C)cc(C(F)(F)F)c2C#N)c1", "unit-of-measurement": "%", "observed-value": 94.1}

----------
Measured viability, T/C, listed per entry.
Test system: 266295-075-R-J1-PDC spheroid viability
Assay: Anticancer human tumor 266295-075-R-J1-PDC cell line growth inhibition [POLQ];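 also: spheroids exposed to compounds for seven days before readout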
Conditions: second compound 1 µM; first compound 0.316 µM; active compounds read low; spheroids with HUVEC and MSC

{"compound": "COc1cccc2c1C(=O)c1c(O)c3c(c(O)c1C2=O)CC(O)(C(=O)CO)CC3OC1CC(N)C(O)C(C)O1 (stereo not drawn) + COC1C(OC(N)=O)C(O)C(Oc2ccc3c(O)c(NC(=O)c4ccc(O)c(CC=C(C)C)c4)c(=O)oc3c2C)OC1(C)C", "viability, T/C [%]": 77}
{"compound": "COc1ccc([C@@H](O)c2cc(-c3ncnc4cc(N5CCOCC5)ccc34)c(F)cc2Cl)nn1 + Cc1cccc(N(C)C(=O)C2C(O)CCN2c2nc(C)cc(C(F)(F)F)c2C#N)c1", "viability, T/C [%]": 69.3}
{"compound": "CC(C)n1c(=O)n(C)c2cnc3cc(F)c(-c4ccc(OCCCN5CCCCC5)nc4)cc3c21 + COC1C(OC(N)=O)C(O)C(Oc2ccc3c(O)c(NC(=O)c4ccc(O)c(CC=C(C)C)c4)c(=O)oc3c2C)OC1(C)C", "viability, T/C [%]": 91.8}

----------
Tested on: 266295-075-R-J1-PDC spheroid viability
Assay: Anticancer human tumor 266295-075-R-J1-PDC cell line growth inhibition [POLQ];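 also: spheroids exposed to compounds for seven days before readout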
Conditions: second compound 0.0316 µM; first compound 10 µM; active compounds read low; spheroids with HUVEC and MSC
Flag rule - viability, T/C less than 60% flags y; the remaining entries get n.

{"molecule": "C#Cc1c(F)ccc2cc(O)cc(-c3ncc4c(N5CC6CCC(C5)N6)nc(OCC56CCCN5CC(F)C6)nc4c3F)c12 (stereo unspecified) + Cc1cccc(N(C)C(=O)C2C(O)CCN2c2nc(C)cc(C(F)(F)F)c2C#N)c1", "cat": "y"}
{"molecule": "CCc1cc2c(N3CCc4c(cc(Cn5ccnc5)cc4-c4cn(C)nc4C(F)(F)F)C3=O)ccnc2c(OC)n1 + Nc1ccc(C#CCN(C(=O)Cc2ncc(C(F)(F)F)cc2C(F)(F)F)c2ccc(F)cc2)nn1", "cat": "n"}
{"molecule": "COc1ccc([C@@H](O)c2cc(-c3ncnc4cc(N5CCOCC5)ccc34)c(F)cc2Cl)nn1 + COC1C(OC(N)=O)C(O)C(Oc2ccc3c(O)c(NC(=O)c4ccc(O)c(CC=C(C)C)c4)c(=O)oc3c2C)OC1(C)C", "cat": "y"}
{"molecule": "COc1cc(C2c3cc4c(cc3C(OC3OC5COC(C)OC5C(O)C3O)C3COC(=O)C23)OCO4)cc(OC)c1O (stereo unspecified) + COC1C(OC(N)=O)C(O)C(Oc2ccc3c(O)c(NC(=O)c4ccc(O)c(CC=C(C)C)c4)c(=O)oc3c2C)OC1(C)C", "cat": "n"}
{"molecule": "O=C(Nc1ccc(O)c(NS(=O)(=O)c2ccc(F)cc2)c1)c1ccc(-c2ccccc2)cc1 + COC1C(OC(N)=O)C(O)C(Oc2ccc3c(O)c(NC(=O)c4ccc(O)c(CC=C(C)C)c4)c(=O)oc3c2C)OC1(C)C", "cat": "n"}
{"molecule": "CC1COCCN1c1cc(C2(O)CC3CCC(C2)O3)c2cnn(-c3ccn[nH]3)c2n1 (stereo unspecified) + Cc1cccc(N(C)C(=O)C2C(O)CCN2c2nc(C)cc(C(F)(F)F)c2C#N)c1", "cat": "y"}
